Target: HCMV polymerase (Human cytomegalovirus)
Construct: made in house; host or cells: SF-9 insect cells infected with recombinant baculovirus
Sequence (P08546 whole entry): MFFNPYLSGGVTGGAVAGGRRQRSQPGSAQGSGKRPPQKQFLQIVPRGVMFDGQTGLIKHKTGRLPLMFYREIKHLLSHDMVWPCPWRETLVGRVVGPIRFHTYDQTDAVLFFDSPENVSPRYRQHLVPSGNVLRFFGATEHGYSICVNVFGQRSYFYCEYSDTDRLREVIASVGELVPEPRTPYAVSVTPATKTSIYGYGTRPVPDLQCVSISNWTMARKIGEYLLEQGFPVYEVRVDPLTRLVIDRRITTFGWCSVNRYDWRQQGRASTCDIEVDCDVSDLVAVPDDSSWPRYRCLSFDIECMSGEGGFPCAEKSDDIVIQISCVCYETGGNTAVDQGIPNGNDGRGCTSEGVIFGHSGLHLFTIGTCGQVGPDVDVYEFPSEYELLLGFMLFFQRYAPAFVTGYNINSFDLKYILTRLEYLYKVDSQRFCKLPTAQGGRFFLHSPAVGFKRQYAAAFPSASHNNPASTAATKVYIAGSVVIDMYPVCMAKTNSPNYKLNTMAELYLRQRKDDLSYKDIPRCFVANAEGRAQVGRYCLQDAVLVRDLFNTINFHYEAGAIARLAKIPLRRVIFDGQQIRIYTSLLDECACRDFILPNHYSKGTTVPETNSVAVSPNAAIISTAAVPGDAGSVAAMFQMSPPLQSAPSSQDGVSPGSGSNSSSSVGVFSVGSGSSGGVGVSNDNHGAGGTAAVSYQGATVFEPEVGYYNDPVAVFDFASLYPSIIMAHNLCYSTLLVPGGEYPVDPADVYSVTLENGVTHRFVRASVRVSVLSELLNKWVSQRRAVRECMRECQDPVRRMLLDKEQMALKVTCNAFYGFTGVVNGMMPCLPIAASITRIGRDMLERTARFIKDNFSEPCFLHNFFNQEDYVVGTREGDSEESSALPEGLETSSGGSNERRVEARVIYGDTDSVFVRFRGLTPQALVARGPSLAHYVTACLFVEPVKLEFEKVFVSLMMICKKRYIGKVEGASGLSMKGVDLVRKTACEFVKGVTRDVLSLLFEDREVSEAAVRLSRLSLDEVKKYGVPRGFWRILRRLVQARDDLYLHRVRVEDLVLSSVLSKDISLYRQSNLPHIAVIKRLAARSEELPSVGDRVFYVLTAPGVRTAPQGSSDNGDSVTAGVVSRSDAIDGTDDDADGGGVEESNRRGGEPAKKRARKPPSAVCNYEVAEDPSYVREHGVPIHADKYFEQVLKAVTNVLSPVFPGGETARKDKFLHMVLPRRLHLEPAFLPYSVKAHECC
Assay: HCMV polymerase assay (scintillation proximity assay)
Type: biochemical
Settings: percentage of inhibition at 25 μM concentration in CMV polymerase assay
Description: The compounds of the present invention are tested in an polymerase assay to show activity described below, which is indicative of a compound's activity and thus of its use as an anti-viral agent. […]
readout-label: inhibition at 25 µM
# output: numeric value plus its unit

# query: inhibition at 25 µM | item O=C(Nc1nnc(NCc2ccc3c(c2)OCO3)s1)c1ccc(Br)cc1 | system: HCMV polymerase (Human cytomegalovirus) 38.1%

# query: inhibition at 25 µM | item O=C(Nc1nnc(NCCCNC2CCCCC2)s1)c1c(Cl)cccc1Cl | system: HCMV polymerase (Human cytomegalovirus) 87.4%

# query: inhibition at 25 µM | item O=C(Nc1nnc(NCc2cccc3ccccc23)s1)c1c(Cl)cccc1Cl | system: HCMV polymerase (Human cytomegalovirus) 65%

# query: inhibition at 25 µM | item COc1ccccc1C(=O)Nc1nnc(NCCc2ccc(S(N)(=O)=O)cc2)s1 | system: HCMV polymerase (Human cytomegalovirus) 28.6%

# query: inhibition at 25 µM | item O=C(Nc1nnc(NC2CCCc3ccccc32)s1)c1ccc([N+](=O)[O-])o1 (centres unmarked) | system: HCMV polymerase (Human cytomegalovirus) 47%
